The measured values listed here are drawn from ChEMBL document CHEMBL1132569.

Cooperativity: recorded values
# study system: Muscarinic acetylcholine receptor M3 (Homo sapiens)
# test protocol: Cooperativity with acetylcholine at human muscarinic acetylcholine receptor M3
test readout: Cooperativity

compound="COc1cc2c(cc1OC)[C@@]13CC[N+]4(N)CC5=CCO[C@H]6CC(=O)N2[C@H]1[C@H]6[C@H]5C[C@@H]34 (stereo partly specified)" study_system="Muscarinic acetylcholine receptor M3 (Homo sapiens)" value_reported="> 2"
compound="C=CC[N+]12CC[C@@]34c5ccccc5N5/C=C6/[C@H]7C[C@H]8[C@@]9(CC[N@@+]8(CC=C)C/C7=C/CO)c7ccccc7N(/C=C(/[C@@H](C[C@@H]31)/C(=C\\CO)C2)[C@H]54)[C@@H]69 (stereo partly specified)" study_system="Muscarinic acetylcholine receptor M3 (Homo sapiens)" value_reported=0.8
compound="O=C1C[C@@H]2OCC=C3C[N+]4(Cc5ccc6ccccc6c5)CC[C@]56c7ccccc7N1[C@H]5[C@H]2[C@H]3C[C@@H]64 (stereo partly specified)" study_system="Muscarinic acetylcholine receptor M3 (Homo sapiens)" value_reported=0.8
compound="O=C1C[C@@H]2OCC=C3C[N+]4(Cc5ccccc5)CC[C@]56c7ccccc7N1[C@H]5[C@H]2[C@H]3C[C@@H]64 (stereo partly specified)" study_system="Muscarinic acetylcholine receptor M3 (Homo sapiens)" value_reported=0.8
compound="O=C1C[C@@H]2OCC=C3C[N+]4(Cc5ccc(-c6ccccc6)cc5)CC[C@]56c7ccccc7N1[C@H]5[C@H]2[C@H]3C[C@@H]64 (stereo partly specified)" study_system="Muscarinic acetylcholine receptor M3 (Homo sapiens)" value_reported="< 0.2"
compound="C=CC[N+]12CC[C@@]34c5cc(OC)c(OC)cc5N5C(=O)C[C@@H]6OCC=C(C1)[C@H](C[C@@H]32)[C@@H]6[C@H]54 (stereo partly specified)" study_system="Muscarinic acetylcholine receptor M3 (Homo sapiens)" value_reported=2
compound="COc1cc2c(cc1OC)[C@@]13CC[N+]4(CCl)CC5=CCO[C@H]6CC(=O)N2[C@H]1[C@H]6[C@H]5C[C@@H]34 (stereo partly specified)" study_system="Muscarinic acetylcholine receptor M3 (Homo sapiens)" value_reported="> 0.2"
compound="O=C1C[C@@H]2OCC=C3C[N+]4(CC5CCCCC5)CC[C@]56c7ccccc7N1[C@H]5[C@H]2[C@H]3C[C@@H]64 (stereo partly specified)" study_system="Muscarinic acetylcholine receptor M3 (Homo sapiens)" value_reported="< 0.2"
compound="C[N+]12CC[C@@]34c5ccccc5N5C(=O)C[C@@H]6OCC=C(C1)[C@H](C[C@@H]32)[C@@H]6[C@H]54 (stereo partly specified)" study_system="Muscarinic acetylcholine receptor M3 (Homo sapiens)" value_reported=0.8
compound="O=C1C[C@@H]2OCC=C3C[N+]4(Cc5cccc([N+](=O)[O-])c5)CC[C@]56c7ccccc7N1[C@H]5[C@H]2[C@H]3C[C@@H]64 (stereo partly specified)" study_system="Muscarinic acetylcholine receptor M3 (Homo sapiens)" value_reported=0.8
compound="CC[N+]12CC[C@@]34c5ccccc5N5C(=O)C[C@@H]6OCC=C(C1)[C@H](C[C@@H]32)[C@@H]6[C@H]54 (stereo partly specified)" study_system="Muscarinic acetylcholine receptor M3 (Homo sapiens)" value_reported=0.8
compound="COc1cc2c(cc1OC)[C@@]13CC[N+]4(C)CC5=CCO[C@H]6CC(=O)N2[C@H]1[C@H]6[C@H]5C[C@@H]34 (stereo partly specified)" study_system="Muscarinic acetylcholine receptor M3 (Homo sapiens)" value_reported=2
compound="COc1cc2c(cc1OC)[C@@]13CC[N+]4(Cc5ccccc5)CC5=CCO[C@H]6CC(=O)N2[C@H]1[C@H]6[C@H]5C[C@@H]34 (stereo partly specified)" study_system="Muscarinic acetylcholine receptor M3 (Homo sapiens)" value_reported=2
compound=COc1cc2c(cc1OC)[C@@]13CCN4CC5=CCO[C@H]6CC(=O)N2[C@H]1[C@H]6[C@H]5C[C@H]43 study_system="Muscarinic acetylcholine receptor M3 (Homo sapiens)" value_reported=0.8
compound="N[N+]12CC[C@@]34c5ccccc5N5C(=O)C[C@@H]6OCC=C(C1)[C@H](C[C@@H]32)[C@@H]6[C@H]54 (stereo partly specified)" study_system="Muscarinic acetylcholine receptor M3 (Homo sapiens)" value_reported=0.8
compound="O=C1C[C@@H]2OCC=C3C[N+]4([O-])CC[C@]56c7ccccc7N1[C@H]5[C@H]2[C@H]3C[C@@H]64 (stereo partly specified)" study_system="Muscarinic acetylcholine receptor M3 (Homo sapiens)" value_reported=0.8
